test system: P. putida (NBRC/ATCC #100650); experiment: Antibacterial resazurin assay, laboratory strain; conditions: Pseudomonas putida, ATCC100650, 18 h, read-out: Ppu EC90
reportedProperty: log10 EC90 (log10 of the value in µM)
Heads up: the numbers are on a log10 scale; they represent EC90 in µM.

Past entries and their recorded results:
COC(=O)c1cc(NC(=N)N)ccc1-c1ccc(-c2ccc(NC(=N)N)cc2C(=O)OC)o1
1.96
N=C(N)NCc1ccc(-c2ccc(-c3ccc(CNC(=N)N)cc3)o2)cc1
1.56
Cc1cc(NC(=N)N)ccc1-c1ccc(-c2ccc(NC(=N)N)cc2C)o1
1.78
N=C(N)Nc1ccc(-c2ccc(C(=O)N3CCc4cc(NC(=N)N)ccc43)o2)cc1
1.99
N=C(N)Nc1ccc2c(c1)CCN2C(=O)c1ccc(-c2ccc(NC(=N)N)cc2C(F)(F)F)o1
1.35
N=C(N)Nc1ccc(-c2ccc(-c3ccc(NC(=N)N)cc3Cl)o2)c(Cl)c1
2.71
N#Cc1cc(NC(=N)N)ccc1-c1ccc(-c2ccc(NC(=N)N)cc2C#N)o1
1.71
N=C(N)Nc1ccc(-c2ccc(-c3ccc(NC(=N)N)cc3C(F)(F)F)o2)c(C(F)(F)F)c1
2.50

Now let's try a different one.
Any idea what log10 EC90 was measured for `COc1cc(NC(=N)N)ccc1-c1ccc(-c2ccc(NC(=N)N)cc2OC)o1` ?
1.29
